- System: MOLM-13 cell line
- assay text: MOLM-13 cell proliferation assay (alamarBlue)
- Format: cell-based
- experimental setup: Homo sapiens, inhibition of proliferation of MOLM-13 cells (acute myeloid leukaemia), 96 hours incubation
Quick reference for pIC50 among some molecules
Please note pIC50 is a logarithmic value: minus log10 of concentration in mol/L. Answer with that number alone.

Here are 3 molecules together with their reported answers.
molecule	test value
COc1cc(C(=O)NC2CCCC2)ccc1Nc1ccc2c(n1)N(C(C)C)[C@H](C)C(=O)N2C [Example 6]	6.12
COc1cc(C(=O)NCCN(C)C)ccc1Nc1ccc2c(n1)N(C1CCOCC1)[C@H](C)C(=O)N2C [Example 46]	6.34
COc1cc(C(=O)NC2CN(C)C2)ccc1Nc1ccc2c(n1)N(C1CCCCC1)[C@H](C)C(=O)N2C [Example 72]	6.60

Request: I have this molecule here, C[C@@H]1C(=O)N(C)c2ccc(Nc3ccc(C(=O)N4CC5(CCS5(=O)=O)C4)cc3)nc2N1Cc1ccccc1 [Example 75] , and I need its recorded pIC50.
Response: 6.46

Request: I have this molecule here, C[C@@H]1C(=O)N(C)c2ccc(Nc3ccc(S(=O)(=O)NC4CCN(C)CC4)cc3)nc2N1C1CCOCC1 [Example 22] , and I need its recorded pIC50.
Response: 6.69
